assayed-target: T1, recombinant mouse IL22R1 (mouse IL22R ECD) (mouse, UniProt Q80XZ4 16-230, biotinylated in the ELISA of Table 4)
T1 construct: extracellular domain; also called mIL22R; mIL22R1
T1 sequence (looked up): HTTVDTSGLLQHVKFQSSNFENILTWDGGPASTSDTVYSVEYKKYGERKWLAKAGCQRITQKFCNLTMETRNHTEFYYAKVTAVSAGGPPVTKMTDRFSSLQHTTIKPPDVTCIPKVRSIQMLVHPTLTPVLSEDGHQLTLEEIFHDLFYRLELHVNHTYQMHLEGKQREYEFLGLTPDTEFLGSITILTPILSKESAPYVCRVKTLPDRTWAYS
protocol-description: Biacore, mIL22R
The following binders are shown together with reported Kd values.
Write down the numeric answer in nM and omit the unit.

* 196F8 (antibody, V domains shown, Vkappa-shuffled clone of 170B2 (keeps the 170B2 VH-CH1); also called VK_196F8) VH: EVQLVESGGGLVQPGGSLRLSCAASGFTFSSSWMYWVRQAPGKGLEFVSVINTRSGITHYVESVKGRFTISTDNAKNTLFLQMNSLKSEDTAVYYCATRIQGLIDYWGQGTQVTVSS VL: DIQMTQSPSSLSASLGDRVTITCQASQSISSMLAWYQQKPGQAPNLLIYGASRLQTGVPSRFSGSRSGTSFTLTISGVEAEDLATYYCLQDYSWPLTFGQGTKVELK | 0.31

Moving on to another binder below.
Q. Item 197B7 (antibody, V domains shown, Vkappa-shuffled clone of 170B2 (keeps the 170B2 VH-CH1); also called VK_197B7) VH: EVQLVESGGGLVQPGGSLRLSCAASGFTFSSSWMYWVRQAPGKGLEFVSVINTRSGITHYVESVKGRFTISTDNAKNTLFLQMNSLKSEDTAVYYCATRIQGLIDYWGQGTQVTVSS VL: DIVMTQSPSSLSASLGDRVTITCQASQSIRSFIDWYQQKPGQAPKLLIYGTSRLETGVPSRFSGTGSGTSFTLTISGVEAEDLATYYCLQDYSWPLTFGQGTKVELK has what recorded Kd?
A. 0.39
